System: PC-3 prostate
Experiment Notes: NCI-60 one-dose screen, 48 h
Study Conditions: 10 µM unless noted
Method: Growth inhibition of the PC-3 human tumor cell line is measured as a screen for anti-cancer activity. Cells are grown in 96 well plates and exposed to the test compound for 48 hours. Compounds are tested at a single concentration, which is 10^-5 M for most compounds. The reported endpoint is percent growth (GI% or GIPRCNT), where numbers from 0 - 100% represent growth inhibition, and numbers from -100% - 0 represent cell death. For example, a value of 40 represents 60% growth inhibition. […]
This is part of a sample that, as a whole, favours compounds with a hit. Of some 83,000 tested, about 20% had one in any assay. Calls of active or inactive are those of the source. How the source made its calls: active means growth percent below 10; inactive means the rest.
Labels: 1 for active, -1 for inactive

| Molecule | Label Value |
| --- | --- |
| NC(=S)N/N=C\c1nccc2c(C(F)(F)C(F)(F)C(F)(F)F)cccc12 | 1 |
| O=[N+]([O-])c1ccc(N=Nc2ccc(O)cc2O)cc1 | -1 |
| NC(N)=N/N=C/c1ccc([N+](=O)[O-])o1 | -1 |
| Cc1ccnc2c1ccc1c(C)ccnc12 | -1 |
| NC(=S)N/N=C/c1ccc(Cl)s1 | -1 |
| O=C(CC1(O)C(=O)Nc2c(Cl)ccc(Cl)c21)c1ccc(Cl)cc1Cl (stereo unspecified) | -1 |
